Hey, just so you know, these numbers are from patent US20160244509A1.

Would you kindly list log10(IC50 values (ng/ml), RS virus neutralization, Vero cells, subtype B) for each of these binders?
Biological target: RSV F protein of RS virus subtype B strains (2007-2 and Z)
Assay: cell-based or functional assay
Scale: log10; quantity: IC50 values (ng/ml), RS virus neutralization, Vero cells, subtype B; unit before log: ng/mL

| binder | measured-result |
| --- | --- |
| AM23 (antibody, V domains shown) VH: EVQLVESGGNVVKPGTSLRLSCAATGFNFHNYGMNWVRQAPGKGLEWVAVVWYDGSKKYYADSVTGRFAISRDNSKNTLYLQMNSLRVEDTAVYYCVRDKVGPTPYFDSWGQGTLVTVSS VL: SYVLTQPPSVSLAPGGTAAITCGRNNIGSETVHWYQQKPGQAPVLVVYDDDDRPSGIPERFSGSNSGNTATLTISRVEAGDEADYYCQVWDRSNYHQVFGGGTKLTV | 2.23 |

// for each binder in input: emit log10(IC50 values (ng/ml), RS virus neutralization, Vero cells, subtype B)
1. AM14 (antibody, V domains shown) VH: EVQLVESGGGVVQPGRSLRLSCAASGFSFSHYAMHWVRQAPGKGLEWVAVISYDGENTYYADSVKGRFSISRDNSKNTVSLQMNSLRPEDTALYYCARDRIVDDYYYYGMDVWGQGATVTVSS VL: DIQMTQSPSSLSASVGDRVTITCQASQDIKKYLNWYHQKPGKVPELLMHDASNLETGVPSRFSGRGSGTDFTLTISSLQPEDIGTYYCQQYDNLPPLTFGGGTKVEIKRTV
2. AM16 (antibody, V domains shown) VH: EVQLVETGGGLAQPGGSLRLSCAASGFTFSSYNMNWVRQAPGKGLEWVSHISAGSSYIYYSDSVKGRFTVSRDNVRNSVYLQMNSLRAADTAVYYCAREDYGPGNYYSPNWFDPWGQGTLVTVSS VL: QSVVTQPPSVSGAPGQRVTISCTGSSSNIGAGYDVHWYQQLPGTAPKLLIYGNTNRPSGVSDRFSGSKSGTSASLAITGLQAEDEADYYCHSYDRSLSGSVFGGGTKLTV
3. recombinant purified D25 (rD25), expressed in 293T cells (antibody, V domains shown) VH: QVQLVQSGAEVKKPGSSVMVSCQASGGPLRNYIINWLRQAPGQGPEWMGGIIPVLGTVHYAPKFQGRVTITADESTDTAYIHLISLRSEDTAMYYCATETALVVSTTYLPHYFDNWGQGTLVTVSS VL: DIQMTQSPSSLSAAVGDRVTITCQASQDIVNYLNWYQQKPGKAPKLLIYVASNLETGVPSRFSGSGSGTDFSLTISSLQPEDVATYYCQQYDNLPLTFGGGTKVEIKRTV
4. D25 (B63D10-D25), monoclonal antibody from the B cell line (culture supernatant or purified from it) (antibody, V domains shown) VH: QVQLVQSGAEVKKPGSSVMVSCQASGGPLRNYIINWLRQAPGQGPEWMGGIIPVLGTVHYAPKFQGRVTITADESTDTAYIHLISLRSEDTAMYYCATETALVVSTTYLPHYFDNWGQGTLVTVSS VL: DIQMTQSPSSLSAAVGDRVTITCQASQDIVNYLNWYQQKPGKAPKLLIYVASNLETGVPSRFSGSGSGTDFSLTISSLQPEDVATYYCQQYDNLPLTFGGGTKVEIKRTV

0.04
2.10
-0.52
0.95
